# TARGET UNDER TEST: recombinant human IL-6 (Homo sapiens, UniProt P05231)
# Sequence (P05231 30-212): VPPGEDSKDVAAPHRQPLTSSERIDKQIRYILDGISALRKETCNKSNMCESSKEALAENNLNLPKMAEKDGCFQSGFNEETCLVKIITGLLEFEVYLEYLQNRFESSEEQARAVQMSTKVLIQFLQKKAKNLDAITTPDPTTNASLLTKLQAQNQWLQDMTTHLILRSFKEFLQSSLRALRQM
# METHOD SUMMARY: Binding of radioiodinated recombinant human IL-6 to synthetic peptide arrays in 96-well microtiter plates
# SETTINGS: Example 2, domain II peptides (IL-6 receptor residues 136–156): truncations and alanine replacements

ITEM SEQUENCE	UNIT NAME	Counts/minute bound
PRSTPSLTTKAVLL [Peptide B8]	Counts/minute	1846
TKAVLLVRKFQNS [Peptide B26]	Counts/minute	5226
PRSTPSLTTKAVLLVRKFQNS [Peptide B33]	Counts/minute	11699
TKAVLLVRKFQNS [Peptide B25]	Counts/minute	5753
PRSTPSLTTKAVLLVRKFQNS [Peptide B17]	Counts/minute	12347
PRSTPSLTTKAVLLVRKFQNS [Peptide B1]	Counts/minute	10790

====

# TARGET UNDER TEST: recombinant human IL-6 (Homo sapiens, UniProt P05231)
# METHOD SUMMARY: Binding of radioiodinated recombinant human IL-6 to synthetic peptide arrays in 96-well microtiter plates
# SETTINGS: Example 1, domain I peptides (IL-6 receptor residues 66–86): truncations and alanine replacements; radiolabeled IL-6 remaining after wash
PROPERTY MEASURED: Counts/minute bound (Counts/minute)

ITEM SEQUENCE	TARGET UNDER TEST	PROPERTY MEASURED	UNIT NAME	REPORTED
AAGSHPSRWAGMGRRLLLRSV [Peptide A1]	recombinant human IL-6 (Homo sapiens, UniProt P05231)	Counts/minute bound	Counts/minute	10739
AAGSHPSRWAGMGRRLLLRSV [Peptide A33]	recombinant human IL-6 (Homo sapiens, UniProt P05231)	Counts/minute bound	Counts/minute	10213
AAGSHPSRWAGMGRRLLLRSV [Peptide A17]	recombinant human IL-6 (Homo sapiens, UniProt P05231)	Counts/minute bound	Counts/minute	10884
AAGSHPSRWAGMGRRL [Peptide A6]	recombinant human IL-6 (Homo sapiens, UniProt P05231)	Counts/minute bound	Counts/minute	1753

====

# TARGET UNDER TEST: recombinant human IL-6 (Homo sapiens)
# METHOD SUMMARY: Binding of radioiodinated recombinant human IL-6 to synthetic peptide arrays in 96-well microtiter plates
# SETTINGS: Example 4, domain IV peptides, D11–D57, separate experiment: truncations and alanine replacements

SUBSTANCE	TARGET UNDER TEST	Counts/minute bound [Counts/minute]
GGSLAFGTLLCIAIVLRFKKT [Peptide D43]	recombinant human IL-6 (Homo sapiens)	20385
GGSLAFGTLLCIAIVLRFKKT [Peptide D27]	recombinant human IL-6 (Homo sapiens)	21945
GGSLAFGTLLCIAIVLRFKKT [Peptide D11]	recombinant human IL-6 (Homo sapiens)	20349
LRFKKT [Peptide D42]	recombinant human IL-6 (Homo sapiens)	1958

Each recorded value in this set is attributed to patent US7144986B2.
